# Tested on: MCF-10A
# test method notes: normalised response (% of control), CellTox Green; higher = less cell death (100 = DMSO, 0 = benzethonium chloride kill control)
# condition info: incubation time: 72 h
# normalised response per entry
# number only, unit % dropped from output

compound	assay value
CC(=O)O[C@]1(C(C)=O)CC[C@H]2[C@@H]3C=C(C)C4=CC(=O)CC[C@]4(C)[C@H]3CC[C@@]21C [Megestrol acetate] (10000 nM)	102
Nc1nc(Cl)nc2c1ncn2[C@H]1C[C@H](O)[C@@H](CO)O1 [Cladribine] (10 nM)	102
CCN1CCN(c2ccc(Nc3cc(N(C)C(=O)Nc4c(Cl)c(OC)cc(OC)c4Cl)ncn3)cc2)CC1 [NVP-BGJ398] (1000 nM)	73.2
OC[C@H]1O[C@@H](n2cnc3c2N=CNC[C@H]3O)C[C@@H]1O [Pentostatin] (10000 nM)	103
CC[C@]1(O)C[C@@H]2CN(CCc3c([nH]c4ccccc34)[C@@](C(=O)OC)(c3cc4c(cc3OC)N(C)[C@H]3[C@@](O)(C(=O)OC)[C@H](OC(C)=O)[C@]5(CC)C=CCN6CC[C@]43[C@@H]65)C2)C1 [Vinblastine] (1000 nM)	50.5

// sample Cc1ccc(F)c(NC(=O)Nc2ccc(-c3cccc4[nH]nc(N)c34)cc2)c1 [Linifanib] (100 nM) , its normalised response was 107

// sample CN1CC[C@H](c2c(O)cc(O)c3c(=O)cc(-c4ccccc4Cl)oc23)[C@H](O)C1 [Alvocidib] (10000 nM) , its normalised response was -1.97

* * *

# Tested on: CAL-51
# test method notes: normalised response (% of control), CellTiter-Glo; higher = more viable cells (100 = DMSO, 0 = benzethonium chloride kill control)
# condition info: incubation time: 72 h
metric name: normalised response (%)
# number only, unit % dropped from output

Examples with their reported normalised response follow.
molecule	normalised response [%]
CN(C)C/C=C/C(=O)Nc1cc2c(Nc3ccc(F)c(Cl)c3)ncnc2cc1O[C@H]1CCOC1 [Afatinib] (10 nM)	87.7
Nc1nc(Cl)nc2c1ncn2[C@H]1C[C@H](O)[C@@H](CO)O1 [Cladribine] (10 nM)	84.4
C=CCNC1=C2C[C@@H](C)C[C@H](OC)[C@H](O)[C@@H](C)/C=C(\C)[C@H](OC(N)=O)[C@@H](OC)/C=C\C=C(/C)C(=O)NC(=CC1=O)C2=O [Tanespimycin] (100 nM)	47.6
CC(=O)O[C@]1(C(C)=O)CC[C@H]2[C@@H]3C=C(C)C4=CC(=O)CC[C@]4(C)[C@H]3CC[C@@]21C [Megestrol acetate] (100 nM)	109

// sample CO[C@H]1C[C@@H]2CC[C@@H](C)[C@@](O)(O2)C(=O)C(=O)N2CCCC[C@H]2C(=O)O[C@H]([C@H](C)C[C@@H]2CC[C@@H](OC(=O)C(C)(CO)CO)[C@H](OC)C2)CC(=O)[C@H](C)/C=C(\C)[C@@H](O)[C@@H](OC)C(=O)[C@H](C)C[C@H](C)/C=C/C=C/C=C/1C [Temsirolimus] (1 nM) , its normalised response was 68.3

// sample CN1CCC(COc2cnc(-c3cccc(Cn4nc(-c5cccc(C#N)c5)ccc4=O)c3)nc2)CC1 (10 nM) , its normalised response was 64.8

// sample COc1cccc2cc(-c3nc([C@H]4CC[C@H](C(=O)O)CC4)n4ncnc(N)c34)[nH]c12 [OSI-027] (100 nM) , its normalised response was 103

// sample Clc1ccc(C(c2ccccc2Cl)C(Cl)Cl)cc1 (stereo not drawn) [Mitotane] (100 nM) , its normalised response was 94.8

* * *

# Test system: CAL-51
# test method notes: normalised response (% of control), CellTox Green; higher = less cell death (100 = DMSO, 0 = benzethonium chloride kill control)
# condition info: incubation time: 72 h
metric name: normalised response (%)
# number only, unit % dropped from output

Examples with their reported normalised response follow.
compound	subject of test	assay value
S=c1[nH]cnc2nc[nH]c12 [Mercaptopurine] (100 nM)	CAL-51	94.5
COc1cccc2c1C(=O)c1c(O)c3c(c(O)c1C2=O)C[C@@](O)(C(=O)CO)C[C@@H]3O[C@H]1C[C@H](N)[C@H](O)[C@H](C)O1 [Doxorubicin] (1000 nM)	CAL-51	22.4
CC(=O)O[C@]1(C(C)=O)CC[C@H]2[C@@H]3C=C(C)C4=CC(=O)CC[C@]4(C)[C@H]3CC[C@@]21C [Megestrol acetate] (10000 nM)	CAL-51	111

// sample C[C@]1(c2nc3c(C(N)=O)cccc3[nH]2)CCCN1 [Veliparib] (1000 nM) , its normalised response was 100

// sample C=CCNC1=C2C[C@@H](C)C[C@H](OC)[C@H](O)[C@@H](C)/C=C(\C)[C@H](OC(N)=O)[C@@H](OC)/C=C\C=C(/C)C(=O)NC(=CC1=O)C2=O [Tanespimycin] (1000 nM) , its normalised response was 48.8

// sample Nc1ccn([C@@H]2O[C@H](CO)[C@@H](O)[C@@H]2O)c(=O)n1 [Cytarabine] (1000 nM) , its normalised response was 37.4

// sample CC[C@]1(O)C[C@@H]2CN(CCc3c([nH]c4ccccc34)[C@@](C(=O)OC)(c3cc4c(cc3OC)N(C)[C@H]3[C@@](O)(C(=O)OC)[C@H](OC(C)=O)[C@]5(CC)C=CCN6CC[C@]43[C@@H]65)C2)C1 [Vinblastine] (1000 nM) , its normalised response was 20.7

// sample CS(=O)(=O)c1ccc(C(=O)Nc2ccc(Cl)c(-c3ccccn3)c2)c(Cl)c1 [Vismodegib] (1000 nM) , its normalised response was 86.1

* * *

# System: MDA-MB-453
# test method notes: normalised viability (% of control), CellTiter-Blue; higher = more viable cells (about 100 = DMSO control)
# condition info: incubation time: 72 h
metric name: normalised viability (%)
# number only, unit % dropped from output

Examples with their reported normalised viability follow.
molecule	metric name	assay value
S=c1[nH]cnc2nc[nH]c12 [Mercaptopurine] (1000 nM)	normalised viability	110
CN1CC[C@H](c2c(O)cc(O)c3c(=O)cc(-c4ccccc4Cl)oc23)[C@H](O)C1 [Alvocidib] (1000 nM)	normalised viability	9.17
OC[C@H]1O[C@@H](n2cnc3c2N=CNC[C@H]3O)C[C@@H]1O [Pentostatin] (1000 nM)	normalised viability	98.2
Cc1c2oc3c(C)ccc(C(=O)N[C@@H]4C(=O)N[C@H](C(C)C)C(=O)N5CCC[C@H]5C(=O)N(C)CC(=O)N(C)[C@@H](C(C)C)C(=O)O[C@@H]4C)c3nc-2c(C(=O)N[C@@H]2C(=O)N[C@H](C(C)C)C(=O)N3CCC[C@H]3C(=O)N(C)CC(=O)N(C)[C@@H](C(C)C)C(=O)O[C@@H]2C)c(N)c1=O [Dactinomycin] (100 nM)	normalised viability	4.93
Cc1ccc(F)c(NC(=O)Nc2ccc(-c3cccc4[nH]nc(N)c34)cc2)c1 [Linifanib] (100 nM)	normalised viability	100

Now consider a different molecule.
// sample Nc1nc(Cl)nc2c1ncn2[C@H]1C[C@H](O)[C@@H](CO)O1 [Cladribine] (100 nM) , its normalised viability was 98.4

* * *

# System: BT-474
# test method notes: normalised viability (% of control), CellTiter-Blue; higher = more viable cells (about 100 = DMSO control)
# condition info: 10000 nM; incubation time: 72 h
# normalised viability per entry
# number only, unit % dropped from output

compound	unit abbrev	normalised viability
CS(=O)(=O)c1ccc(C(=O)Nc2ccc(Cl)c(-c3ccccn3)c2)c(Cl)c1	%	77.5
Clc1ccc(C(c2ccccc2Cl)C(Cl)Cl)cc1 (centres undefined)	%	130
C[C@]1(c2nc3c(C(N)=O)cccc3[nH]2)CCCN1	%	104

Now consider a different compound.
// sample "COc1cccc2cc(-c3nc([C@H]4CC[C@H](C(=O)O)CC4)n4ncnc(N)c34)[nH]c12" , its normalised viability was 25.9

* * *

# Test system: CAL-148
# test method notes: normalised response (% of control), CellTiter-Glo; higher = more viable cells (100 = DMSO, 0 = benzethonium chloride kill control)
# condition info: incubation time: 72 h
metric name: normalised response (%)
# number only, unit % dropped from output

Examples with their reported normalised response follow.
molecule	normalised response [%]
C[C@]1(c2nc3c(C(N)=O)cccc3[nH]2)CCCN1 [Veliparib] (100 nM)	96.4
CN1CCC(COc2cnc(-c3cccc(Cn4nc(-c5cccc(C#N)c5)ccc4=O)c3)nc2)CC1 (10 nM)	92.9
S=c1[nH]cnc2nc[nH]c12 [Mercaptopurine] (100 nM)	81.7
N#CC[C@H](C1CCCC1)n1cc(-c2ncnc3[nH]ccc23)cn1 [Ruxolitinib] (100 nM)	87.1
COc1cccc2cc(-c3nc([C@H]4CC[C@H](C(=O)O)CC4)n4ncnc(N)c34)[nH]c12 [OSI-027] (100 nM)	100
CC[C@]1(O)C[C@@H]2CN(CCc3c([nH]c4ccccc34)[C@@](C(=O)OC)(c3cc4c(cc3OC)N(C)[C@H]3[C@@](O)(C(=O)OC)[C@H](OC(C)=O)[C@]5(CC)C=CCN6CC[C@]43[C@@H]65)C2)C1 [Vinblastine] (10 nM)	70.8
C=CC[C@@H]1/C=C(\C)C[C@H](C)C[C@H](OC)[C@H]2O[C@@](O)(C(=O)C(=O)N3CCCC[C@H]3C(=O)O[C@H](/C(C)=C/[C@@H]3CC[C@@H](O)[C@H](OC)C3)[C@H](C)[C@@H](O)CC1=O)[C@H](C)C[C@@H]2OC [Tacrolimus] (100 nM)	111

Now consider a different molecule.
// sample Cc1ccc(F)c(NC(=O)Nc2ccc(-c3cccc4[nH]nc(N)c34)cc2)c1 [Linifanib] (10 nM) , its normalised response was 112
